runDescription: soluble fraction after stress (log2 fold change); higher = more stays soluble; pooled small domains, quantitative proteomics
conditionLabel: stress: 50 degC
Assignment: determine reported soluble fraction (log2) for the given sequences.
Reply briefly: the number, and no unit.

Form field soluble fraction (log2), entry HMDEEQIASRRALIMRAAREIMETQGMEALSIRKIAAMIQQTPGIIYHYFSGKEELMLAVVQEGYH : 0.111

Form field soluble fraction (log2), entry HMNEKAALIFNEWSDFVSKDDEANAQIKFDELITLYKKTGYTKIALLEVATKQASNGDIEGALAKYSLLID : 0.208

Form field soluble fraction (log2), entry HMLSTGQLIRYYRKRAGMTQAELAEEVEMSEPGIRNYELGNRTPSKAQLSAIARGLGIEPEALI : -0.48

Form field soluble fraction (log2), entry HMAMTRTEYLNQLKHYLKRLPHTDYEEAMDYFKEYFEEAGPENEAQVIQDLGNPKEAAYEILSQLL : -0.253

Form field soluble fraction (log2), entry HMGPVDFYQMFISELQHLAEKPVTVDALIESTQLHKSQLTEWLKRAVDDGVVKKLNRPARFQVKNK : -0.029

Form field soluble fraction (log2), entry HMTAQLAAQERTHALDMFMGGYKFSSKPAENGVRAEFEKKNFTLEDGKFLGGDEFMKSLMENDDYKGAFV : 0.375

Form field soluble fraction (log2), entry HMTSVPGTVVTNANLRGGPGTNYPIVGKAPAGTTVNVVESTADRTWYYLDTGSWIAAFLVKLS : 0.152

Form field soluble fraction (log2), entry HMSFDTFKKVFSNLVEKSGYSDAEIARRLGVNRSTISRWKSGEQSPPLPKVKEIANFFGVSPMVFVD : 0.0554

Form field soluble fraction (log2), entry HMDGNVPSVEGKPLSGAKYILETYGYKTGTVTEVNSEDVPAGIVISQNPARGTTLANGGSVNLQVSLG : 0.321

Form field soluble fraction (log2), entry HMHQALLEQSAEHAQQVKAYELLLTAERALDEENTEAFLSAMKSLKPLAENLDAKGKALYQELLPFVTEA : -0.0088

Form field soluble fraction (log2), entry HMYEDIDSAYRILEINSTVSNQEIKNAYRRMAKKYHPDKVAHLGVEHQKGAEEKFKKVQEAYILIKKRRG : -0.557

Form field soluble fraction (log2), entry HMEKKTILIPPVITVRALAEISQIPVNRLLQELIKNGVFTSINEKIDFDTAVIIGADLNLDIQLL : -0.95

Form field soluble fraction (log2), entry HMTKGDRIKARREELGLTQTDLAEAISSTKQNIYKYENNIISNIPSDKVEAIAEVLKISPAYLMGWGDE : 0.0302

Form field soluble fraction (log2), entry HMRNERDRQLYAAMEKLKAEYREALYLVYFENMSYRDAAAVMAQTEKQISNLVYRGKQSLKTILEQEGF : -2.65

Form field soluble fraction (log2), entry HMYLPGERMRIKITALGSNPKQGVGYLPDGMMVVVDEAATLVGRFVEIEFVKFLQTNSGRMMFAKVAT : -0.224

Form field soluble fraction (log2), entry HMNEFAYLIKISPEHNNNRYYRMVAEGDNFRIEMGRIGASPVQMKRPMYLWNETYQKKLQEGYTDRTSYTS : -1.92

Form field soluble fraction (log2), entry HMDPSVTGLLTRLGISPQTAQELAGQYEEPYILEKIAIVEAHPEYVKNAAGFVITALQEDWKD : -0.255
